assay: AUC in rat catalepsy model at 3.0 mg/kg, po; assay type: ADME, organism-based; set-up: dose 3 mg/kg, route oral; settings: in vivo
MEASURED ENDPOINT: AUC (ng·h/mL)
The response must be a number in ng·h/mL with no trailing unit.

Complete the entry with AUC for COCCOc1ccc(N2CCN(CCn3cnc4c3nc(N)n3nc(-c5ccco5)nc43)CC2)cc1
524

* * *

biological target: Adenosine receptor A2a (Homo sapiens); experiment: Antagonist activity at human adenosine A2A receptor
Sequence (P29274 whole entry): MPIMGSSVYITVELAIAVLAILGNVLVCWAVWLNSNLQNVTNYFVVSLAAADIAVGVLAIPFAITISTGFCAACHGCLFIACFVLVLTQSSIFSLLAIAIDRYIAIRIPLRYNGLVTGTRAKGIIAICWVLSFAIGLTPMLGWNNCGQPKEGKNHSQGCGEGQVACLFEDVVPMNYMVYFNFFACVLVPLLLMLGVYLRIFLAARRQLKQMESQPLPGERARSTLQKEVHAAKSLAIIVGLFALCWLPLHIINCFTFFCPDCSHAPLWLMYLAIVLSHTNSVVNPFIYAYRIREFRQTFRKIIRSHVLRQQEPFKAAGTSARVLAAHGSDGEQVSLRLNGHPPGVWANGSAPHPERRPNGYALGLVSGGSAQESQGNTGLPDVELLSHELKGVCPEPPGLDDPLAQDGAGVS
MEASURED ENDPOINT: pKi
pKi here is simply -log10 of the concentration when that concentration is written in mol/L.

COMPOUND STRUCTURE | pKi
Nc1nc2c(ncn2Cc2ccccc2)c2nc(-c3ccco3)nn12 | 8.82
COCCOc1ccc(N2CCN(CCn3cnc4c3nc(N)n3nc(-c5ccccc5C)nc43)CC2)cc1 | 7.69
COCCOc1ccc(N2CCN(CCn3cnc4c3nc(N)n3nc(-c5ccccc5F)nc43)CC2)cc1 | 8.03
Nc1nc2c(ncn2CCN2CCN(c3ccc(Cl)cn3)CC2)c2nc(-c3ccco3)nn12 | 9.05

Assign pKi to the following record: COCCOc1ccc(N2CCN(CCn3cnc4c3nc(N)n3nc(-c5ccccc5C(F)(F)F)nc43)CC2)cc1
8.00

Data origin, for the record: ChEMBL document CHEMBL1139098
